- Assay target: T1, neurotensin receptor on purified brain membranes from adult male mice (mouse, UniProt O88319 1-424)
- T1 construct: whole, on cells; This is the native receptor in a brain membrane preparation, not on intact cells; also called mouse brain membranes
- T1 sequence (O88319 whole entry): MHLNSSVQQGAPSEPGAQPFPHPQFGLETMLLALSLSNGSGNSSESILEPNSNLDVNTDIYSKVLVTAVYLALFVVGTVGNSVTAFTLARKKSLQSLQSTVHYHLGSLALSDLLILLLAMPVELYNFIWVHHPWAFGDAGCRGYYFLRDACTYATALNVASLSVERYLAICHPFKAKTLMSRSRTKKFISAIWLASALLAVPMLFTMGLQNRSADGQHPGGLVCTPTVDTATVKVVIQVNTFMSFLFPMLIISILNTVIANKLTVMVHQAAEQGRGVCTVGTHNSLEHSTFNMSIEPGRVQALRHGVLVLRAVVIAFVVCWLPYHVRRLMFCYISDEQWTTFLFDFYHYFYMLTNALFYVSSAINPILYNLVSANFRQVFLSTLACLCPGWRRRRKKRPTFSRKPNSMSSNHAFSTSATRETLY
- Method description: competition with 0.1 nM 125I-Tyr3-neurotensin on mouse brain membranes, filtration, 20 min at 22 C
pIC50: −log10 of the molar value. Where no end group is shown, it is not given here. FTC = fluorescein thiocarbamyl

Binder: {FTC}-ELYENKPRRPYIL (Synthetic 13-residue neurotensin analogue with Glu in place of pGlu at position 1, carrying one fluorescein per peptide; Molecular weight 2080; also called N-FTC-[Glu1]NT; FTC-[Glu1]NT) [N-fluoresceyl thiocarbamyl-[Glu1] neurotensin]
pIC50: 9.26

Cited source for all entries: patent EP0606804B1
